B1: FAM50A (parent)
chain: HIFPASRWEPYDPEKKWDKYTIR

- Variants of: B1
- protocolDescription: protein stability index of a GFP-peptide fusion (GPS, HEK-293T) (PSI 1-6); higher = more stable;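 note: lentivirally expressed fusions sorted by FACS into six bins by GFP to DsRed ratio, PSI derived from sequencing read proportions per bin multiplied by bin number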
- conditions: c terminus: native
measuredMetric: protein stability index
Enter a number only.

Can you share its protein stability index? I mean this variant: HIFPASRWEPYDPEKTWDKYTIR [K16T]
1.81

Now consider HIFCASRWEPYDPEKKWDKYTIR [P4C] and answer again.
1.69

Now consider HIFPASRWEPYDPEKKCDKYTIR [W17C] and answer again.
3.46

Now consider HIFPASRWEPIDPEKKWDKYTIR [Y11I] and answer again.
2.51

Now consider HIFPACRWEPYDPEKKWDKYTIR [S6C] and answer again.
1.72

Now consider HIFPASRWEPYDPEKKWDKHTIR [Y20H] and answer again.
2.74

Now consider HIFPASRWEPYDPEKKWDKYYIR [T21Y] and answer again.
2.71

Now consider HIFPASRWEPYDPEKKWDKYTIC [R23C] and answer again.
2.08

Now consider HIFPASRWEPYKPEKKWDKYTIR [D12K] and answer again.
2.73

Now consider HIFPASRWEPYDPEKKWQKYTIR [D18Q] and answer again.
2

Now consider HIFPASRWEPYDPEKSWDKYTIR [K16S] and answer again.
2.6

Now consider HIFPTSRWEPYDPEKKWDKYTIR [A5T] and answer again.
2.06

Now consider HIFPASRWEPYDPEMKWDKYTIR [K15M] and answer again.
2.16

Now consider HIFPASRWEPYDPEKKIDKYTIR [W17I] and answer again.
2.64

Now consider HIFPASRWEPYDPEKKWSKYTIR [D18S] and answer again.
1.45

Now consider HIFPASRWEPYDPEKKWDKKTIR [Y20K] and answer again.
2.6

Now consider PIFPASRWEPYDPEKKWDKYTIR [H1P] and answer again.
2.83

Now consider HIFPASRWEPYDPEKKWDKYTHR [I22H] and answer again.
2.19

Now consider HIFPASRWEPYDPEKKWDKYTPR [I22P] and answer again.
3.88

Now consider HIFPASRWEPHDPEKKWDKYTIR [Y11H] and answer again.
2.35

Now consider HIFDASRWEPYDPEKKWDKYTIR [P4D] and answer again.
2.22

Now consider HIFPASRWDPYDPEKKWDKYTIR [E9D] and answer again.
1.85
